# Tested on: Aβ production
# Protocol summary: Cellular Aβ IC50 determination (Aβ40 sandwich ELISA)
# Format: cell-based
# Study conditions: Cricetulus griseus, Chinese hamster ovary cells over-expressing human APP695 with London and Swedish mutations, 24 h
Recorded IC50 by entry

Compound	IC50
CCS(=O)(=O)C[C@H](NC(=O)OCc1nc(C)cs1)C(=O)N[C@H](CC(C)C)[C@@H](O)C[C@@H](C)C(=O)N[C@@H](C(=O)NCC(C)C)C(C)C	< 6 µM
Cc1nc(COC(=O)N[C@@H](CS(C)(=O)=O)C(=O)N[C@H](CC(C)C)[C@@H](O)C[C@@H](C)C(=O)N[C@@H](C(=O)NCc2ccncc2)C(C)C)c(C)o1	< 6 µM
CCC(C)S(=O)(=O)C[C@H](NC(=O)OCc1nc(C)cs1)C(=O)N[C@H](CC(C)C)[C@@H](O)C[C@@H](C)C(=O)N[C@@H](C(=O)NCC(C)C)C(C)C (some centres unmarked)	> 100 µM
CCC(CC)SC[C@H](NC(=O)OCc1nc(C)cs1)C(=O)N[C@H](CC(C)C)[C@@H](O)C[C@@H](C)C(=O)N[C@@H](C(=O)NCC(C)C)C(C)C	< 6 µM
Cc1csc(COC(=O)N[C@@H](CS(C)(=O)=O)C(=O)N[C@H](Cc2ccccc2)[C@@H](O)C[C@@H](C)C(=O)N[C@@H](C(=O)NCC(C)C)C(C)C)n1	6 to 100 µM
